Kindly supply the reported z-score values for the records listed here.
# protocol-details: PSAC antagonists in infected red cells, primary screen, cell-based, P. falciparum Indochina, OD700, 2 h (AID 1155);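 note: lysis reports solute entry through the parasite surface anion channel PSAC; channel blockers reduce lysis of infected cells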
# protocol-conditions: P. falciparum Indochina infected erythrocytes, osmotic lysis OD700; higher = more signal, called active from +8 up or from −8 down
Give bare numbers.

// known answers, use as guide
Look at this compound and give its reported z-score. COc1ccc(C(O)C2C=CC3C(=O)N(c4ccccc4)C(=O)C3N2Nc2ccccc2)cc1OCc1ccccc1 (configuration not stated) 1.49

Data request, read-out z-score, for CCCC[C@@H]1C[C@H]1[C@@H](NC(=O)c1ccccc1)c1ccc(Cl)cc1 0.589

Please report the recorded z-score for COC1(C)CN(Cc2ccccc2Br)[C@H](/C=C/c2ccccc2)[C@H](Cc2ccccc2)O1 (some centres not stated) . 0.669

Below is a list of compounds. For each, state its recorded z-score.
1. [N-]=[N+]=NCc1ccccc1[C@H]1OC(c2ccc(OCCCO)cc2)=N[C@@]1(CCS(=O)(=O)c1ccccc1)C(N)=O
2. COc1c(C)cc(-c2cc3c(c(-c4ccccc4)n2)[Si](C(C)C)(C(C)C)OC3)cc1C
3. C=CC[C@@]1(C(=O)N2CCCCC2)N=C(c2ccc(OCCCO)cc2)O[C@@H]1c1ccccc1

6.95
0.494
11.4

---

# protocol-details: small-molecule microarray binders of probe aCHRDL2, primary screen, biochemical, biotinylated probe, 635/667 nm fluorescence (AID 1100)
# protocol-conditions: higher = more signal
Assign composite z-score to each entry below.
One number for each entry.

Sample answers from the record:
Query: composite z-score; subject: C=C[C@@H](COC(C)=O)NS(=O)(=O)c1ccc(Br)cc1 -0.0829

What value of composite z-score has been reported for the following molecule? CCOC(=O)C[C@H]1[C@H](OC(=O)c2ccc(-c3ccccc3)cc2)[C@@H](NC(=O)c2ccc3ccccc3c2)c2cc(OCCCO)ccc2N1C(=O)c1ccc2ccccc2n1 0.221

Query (molecule): CCCc1cccc(=O)o1 ; field requested: composite z-score -0.401

// query composite z-score value for entry COc1ccccc1CN1C(=O)c2ccccc2[C@@H](C(=O)NC(C)C)[C@@H]1c1ccc(CO)cc1 0.756

Name the recorded composite z-score for COC(=O)[C@H](Cc1ccccc1)N1CC(/C=C/C2CC2)=C[C@@H]1[C@@H](O)Cc1ccccc1 . -0.276

Provide composite z-score values for the following items, in order.
1. CC(C)N1CC=CC23O[C@@H]4C=CCCOC(=O)C4[C@H]2C(=O)N(CCO)[C@@H]3C1=O (stereo partly drawn)
2. C=CCNC(=O)[C@H]1[C@@H]2C(=O)O[C@@H](c3ccccc3)[C@@H](c3ccccc3)N2[C@@H](c2ccccc2OCCO)[C@]12C(=O)N(C(=O)OCCOC)c1ccc(C#CC3=CCCCC3)cc12
3. C=CC[C@]12N=C(c3ccc(OCCCO)cc3)O[C@H]1c1ccccc1N(C)C2=O
4. Cc1ccc(C(C)CC(O)C2C=CC3C(=O)N(c4ccccc4)C(=O)C3N2Nc2ccc(C(C)C)cc2)o1 (stereo not drawn)
5. Cc1ccc(S[C@]2(C(=O)O)CC(=O)N(Cc3ccccc3Cl)[C@@H]2c2ccc(CO)cc2)cc1
6. C[C@@H]1ON(c2ccc(C(=O)OC(C)(C)C)cc2)[C@H](c2ccc(Br)cc2)[C@H]1C(=O)N1C(=O)OC[C@H]1Cc1ccccc1

[-0.0034, 0.521, 0.864, 1.37, 0.938, -0.17]

// each molecule listed below needs its composite z-score
1. O=C1C2C=CC(C(O)c3cc(C(F)(F)F)cc(C(F)(F)F)c3)N(Nc3ccc([N+](=O)[O-])cc3)C2C(=O)N1c1ccccc1 (stereo not drawn)
2. C[N+](C)(C)CCCC[C@@H]1NC(=O)[C@@H]2C[C@H](C(=O)O)[C@H](c3ccc(O)cc3)N2C1=O
3. COC(=O)[C@@]1(Cc2ccc(F)cc2)[C@H]2c3cc(C(=O)N4CCCC4)n(CCc4c[nH]c5ccc(OC)cc45)c3C[C@H]2CN1C(=O)c1ccccc1
4. CCCCN1CC=CC23O[C@@H]4C=CCOC(=O)[C@@H]4[C@H]2C(=O)N(CCCO)[C@@H]3C1=O (stereo partly drawn)

1. 0.499
2. 0.937
3. 1.01
4. 0.48

Would you mind giving composite z-score for every molecule in the list below?
1. C=CCOC(=O)[C@@H]1[C@H]2C(=O)O[C@H](c3ccccc3)[C@H](c3ccccc3)N2[C@H](c2ccc(OCCOC(=O)[C@H]3C[C@H]4C(=O)N[C@@H](CCCC[N+](C)(C)C)C(=O)N4[C@H]3c3ccc(O)cc3)cc2)[C@@]12C(=O)Nc1ccc(I)cc12
2. C=CCC(OC(C)=O)[C@@H]1[C@@H](N(Cc2ccc(-c3ccccc3)cc2)C(=O)c2cccc3ccccc23)c2cc(OCCCO)ccc2N1C(=O)Cc1ccc2ccccc2c1 (stereo partly drawn)
3. CC(C)(C)OC(=O)CC[C@]1(C(=O)NCCN2CCOCC2)N=C(c2ccc(OCCCO)cc2)O[C@H]1c1ccccc1

[-0.248, 0.425, 0.93]

---

# Tested on: Noggin (protein binding on small-molecule microarray)
# protocol-details: Noggin binders on small-molecule microarray, primary screen, biochemical, 635/667 nm fluorescence (AID 1095);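 note: score merges 667 nm feature fluorescence with signal to noise over triplicate slides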
# protocol-conditions: 635 nm fluorescence, higher = more signal
Classification field. Basis: composite z-score. Definitions: low (below -0.3), intermediate (-0.3 to below 0.4), high (0.4 or more)

Some solved entries appear below for comparison.
Bin? CCOc1cc(C(O)C2C=CC3C(=O)N(C)C(=O)C3N2N2CCCCC2)ccc1O (stereo unspecified) intermediate

Using the reported composite z-score, which band applies to CC[C@@H]1[C@H]2C3C(=O)N(CC)C(=O)C3CC(=O)[C@H]2[C@H](c2ccc(C)cc2)N1S(=O)(=O)c1ccc(C)cc1 (stereo partly specified) ? high

Which band does COC(=O)[C@]1(CCS(=O)(=O)c2ccccc2)N=C(c2ccc(OCCCO)cc2)O[C@@H]1c1ccccc1CN=[N+]=[N-] fall in? high

In plain terms, what class is Cc1ccc(S[C@]2(C(=O)NCC(C)C)CC(=O)N(Cc3ccccc3Cl)[C@@H]2c2ccc(CO)cc2I)cc1 ? low

Please classify: C[C@H]1ON(c2ccc(C(=O)OC(C)(C)C)cc2)[C@@H](c2ccc(O)cc2)[C@@H]1C(=O)N1C(=O)OC[C@@H]1c1ccccc1 high

Sort COC(=O)Cn1c(C(=O)N2CCCC2)cc2c1C[C@H]1CN(C(=O)c3ccccc3)[C@@](Cc3ccc(F)cc3)(C(=O)OC)[C@@H]21 into one of the categories. low

Others:
# bin label for [N-]=[N+]=Nc1ccccc1C[C@@]1(C(=O)O)N=C(c2ccc(OCCCO)cc2)O[C@@H]1c1ccccc1 intermediate

Categorize the following entry: COC(=O)[C@@]1(Cc2ccccc2)[C@H]2c3cc(C(=O)N4CCCC4)n(C[C@H](O)CO)c3C[C@H]2CN1C(=O)c1ccccc1 intermediate

Class for O=C1O[C@H](c2ccccc2)[C@H](c2ccccc2)N2[C@H]1[C@@H](C(=O)O)[C@]1(C(=O)Nc3ccccc31)[C@H]2c1ccc(O)cc1 ? low

Please report the category associated with COCCCNC(=O)[C@@H]1c2ccccc2C(=O)N(Cc2ccccc2C(F)(F)F)[C@H]1c1ccc(CO)cc1 , nothing else. low

---

# protocol-details: E. coli DRC41 culture turbidity changes, primary screen, E. coli filamentation inducer project, strain DRC41, OD650, 48 h (AID 1152);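 note: E. coli MC1000 strain DRC41 lacking acrAB efflux pump and sulA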
# protocol-conditions: E. coli DRC41 (acrAB sulA), higher = more signal, called active from +8 up or from −8 down
Hi there, I'd appreciate the recorded z-score for every entry that follows.
Give bare numbers.

Past entries and their recorded results:
Fill in: z-score of COC(=O)[C@@]1(Cc2ccccc2)[C@H]2c3cc(C(=O)N4CCCC4)n(Cc4ccsc4Br)c3C[C@H]2CN1C(=O)c1ccccc1 is ___ -1.82

Quick one: z-score for COC(=O)[C@@]1(Cc2ccc(F)cc2)[C@H]2c3cc(C(=O)N4CCCC4)n(CCF)c3C[C@H]2CN1C(=O)c1ccccc1 ? -0.379

Fill in: z-score of COc1ccc(NN2C(C(O)c3ccccn3)C=CC3C(=O)N(C4CCCCC4)C(=O)C32)cc1 (stereo not drawn) is ___ 0.29

I have this compound here, C#CCNC(=O)[C@H](Cc1ccccc1)NC(=O)[C@@H](N=[N+]=[N-])C(C)C , and I need its recorded z-score. 0.367

Endpoint output: z-score of CN(C)CCCNC(=O)[C@@]1(C)c2ccccc2C(=O)N(Cc2cc(C(F)(F)F)cc(C(F)(F)F)c2)[C@H]1c1ccc(CO)cc1 . Value? -1.2

Working through the 2 compounds below one at a time, give z-score for each.
1. C=CCOC(=O)[C@H]1[C@@H]2C(=O)O[C@@H](c3ccccc3)[C@@H](c3ccccc3)N2[C@@H](c2ccc(OCCOC(=O)[C@H]3C[C@H]4C(=O)N[C@@H](Cc5ccccc5)C(=O)N4[C@H]3c3ccc(O)cc3)cc2)[C@]12C(=O)Nc1ccc(I)cc12
2. NCCCCCCNC(=O)[C@H]1C[C@H]2C(=O)N[C@@H](Cc3ccccc3)C(=O)N2[C@H]1c1ccc(O)cc1

[-0.783, 1.42]

Could you tell me z-score for each of these compounds? They are listed below.
1. CO[C@H]1O[C@H](CO)[C@@H](OC(=O)Nc2ccc(C(F)(F)F)cc2)[C@H](OC(=O)Nc2ccc3c(c2)OCO3)[C@H]1OC(=O)Nc1ccc2c(c1)OCO2
2. CC(C)CCC[C@@H](C)[C@H]1CC[C@@]2(C)C3=C(CC[C@]12C)[C@@]1(C)CC[C@H](OC(=O)c2ccc(Br)cc2)C(C)(C)C1CC3 (stereo partly drawn)
3. [N-]=[N+]=NCc1ccccc1C[C@@]1(C(=O)NCCN2CCOCC2)N=C(c2ccc(OCCCO)cc2)O[C@@H]1c1ccccc1N=[N+]=[N-]
4. CCOC(=CC(=O)OC)CC(O)c1cccc(Cl)c1 (stereo not drawn)

-0.463
3.37
-0.337
1.04
